Target: MycN protein (n-myc) (Homo sapiens, UniProt P04198)
Construct: either 2×10^6 of L-363 (human leukemia cell line) or SKNBE2 (neuroblastoma cell line) cells; endogenous in cells; host or cells: SKNBE2 / SK-N-BE(2) neuroblastoma cells
Sequence (P04198 whole entry): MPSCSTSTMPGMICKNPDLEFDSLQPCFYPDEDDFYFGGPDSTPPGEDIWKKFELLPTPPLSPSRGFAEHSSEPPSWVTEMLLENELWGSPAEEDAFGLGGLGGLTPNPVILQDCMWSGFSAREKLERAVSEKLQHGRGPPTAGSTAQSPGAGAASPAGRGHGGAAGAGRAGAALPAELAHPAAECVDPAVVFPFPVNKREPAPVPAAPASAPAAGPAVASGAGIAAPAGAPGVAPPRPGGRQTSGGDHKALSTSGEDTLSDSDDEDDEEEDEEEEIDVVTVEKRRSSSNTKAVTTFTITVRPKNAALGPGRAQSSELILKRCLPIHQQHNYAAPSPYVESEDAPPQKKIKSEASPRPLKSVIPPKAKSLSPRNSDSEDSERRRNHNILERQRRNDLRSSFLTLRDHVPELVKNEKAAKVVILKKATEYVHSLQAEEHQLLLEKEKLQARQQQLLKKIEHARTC
Assay: Degradation of MycN protein, 24 h treatment, JESS Western, SK-N-BE(2) cells (Example 161)
Assay type: cell-based
Conditions: SKNBE2 cells, 1 μM
MEASURED_ENDPOINT: inhibition at 1 µM

structure_notation=CN(c1nccc(Nc2cc(C3CC3)[nH]n2)n1)C1CC2(C1)CN(S(=O)(=O)c1cnn(C)c1)C2 experimental_value="20 to 49%"
structure_notation=CN(c1nccc(Nc2cc(C3CC3)[nH]n2)n1)C1CC2(C1)CN(Cc1cccc(OC(F)(F)F)c1)C2 experimental_value="20 to 49%"
structure_notation=CN(c1nccc(Nc2cc(C3CC3)[nH]n2)n1)C1CC2(C1)CN(CC1CC1)C2 experimental_value="20 to 49%"
structure_notation=CN(c1nccc(Nc2cc(C3CC3)[nH]n2)n1)C1CC2(C1)CN(Cc1cc(F)cc(F)c1)C2 experimental_value="< 20%"
structure_notation=CN(c1nccc(Nc2cc(C3CCCC3)[nH]n2)n1)C1CCN(C2CC2)CC1 experimental_value="20 to 49%"
structure_notation=CN(c1nccc(Nc2cc(C3CC3)[nH]n2)n1)C1CC2(C1)CN(S(=O)(=O)c1cn3c(n1)CCCC3)C2 experimental_value="< 20%"
structure_notation=CN(c1nccc(Nc2cc(C3CCCC3)[nH]n2)n1)C1CCNCC1 experimental_value="20 to 49%"
structure_notation=COCCOCCN1CC2(CC(N(C)c3nccc(Nc4cc(C5CC5)[nH]n4)n3)C2)C1 experimental_value="20 to 49%"

----------
Target: MycN protein (Homo sapiens)
Construct: either 2×10^6 of L-363 (human leukemia cell line) or SKNBE2 (neuroblastoma cell line) cells; endogenous in cells; host or cells: SKNBE2 / SK-N-BE(2) neuroblastoma cells
Sequence (P04198 whole entry): as above
Assay: Degradation of MycN protein, Western blot, SKNBE2 cells (Example 160)
Format: cell-based
Settings: SKNBE2, 6 h
Below, each of the compounds is paired with its reported inhibition at 2 µM value.
MEASURED_ENDPOINT: inhibition at 2 µM

compound="CN(c1nccc(Nc2cc(C3CC3)[nH]n2)n1)[C@H]1CC[C@H](NC(=O)Cc2ccnc(C(F)(F)F)c2)CC1 [Compound 123]" measured_on="MycN protein (Homo sapiens)" experimental_value="20 to 49%"
compound="CN(c1nccc(Nc2cc(C3CC3)[nH]n2)n1)[C@H]1CC[C@H](NC(=O)c2cccc(C(F)(F)F)c2)CC1 [Compound 107]" measured_on="MycN protein (Homo sapiens)" experimental_value="50 to 79%"
compound="CN(c1nccc(Nc2cn(C3CCCC3)cn2)n1)[C@H]1CC[C@H](NC(=O)C2Cc3ccccc3C2)CC1 [Compound 130]" measured_on="MycN protein (Homo sapiens)" experimental_value="< 20%"
compound="Cn1cc(C(=O)N[C@H]2CC[C@H](N(C)c3nccc(Nc4cc(C5CC5)[nH]n4)n3)CC2)nn1 [Compound 140]" measured_on="MycN protein (Homo sapiens)" experimental_value="80 to 100%"

----------
Below, each of the compounds is paired with its reported inhibition at 6 µM value.
Biological target: MycN protein (n-myc) (Homo sapiens, UniProt P04198)
Construct: either 2×10^6 of L-363 (human leukemia cell line) or SKNBE2 (neuroblastoma cell line) cells; endogenous in cells; host or cells: SKNBE2 / SK-N-BE(2) neuroblastoma cells
Test: Degradation of MycN protein, 24 h treatment, JESS Western, SK-N-BE(2) cells (Example 161)
Format: cell-based
Conditions: SKNBE2 cells, 6 μM
MEASURED_ENDPOINT: inhibition at 6 µM

structure_notation=CN1CC2(CC(Nc3nccc(Nc4cc(C5CC5)[nH]n4)n3)C2)C1 measured_on="MycN protein (n-myc) (Homo sapiens, UniProt P04198)" experimental_value="80 to 100%"
structure_notation=CN(c1nccc(Nc2cc(C3CC3)[nH]n2)n1)C1CCN(C2CC2)CC1 measured_on="MycN protein (n-myc) (Homo sapiens, UniProt P04198)" experimental_value="80 to 100%"
structure_notation=CN1CCC(Nc2nccc(Nc3cc(C4CC4)[nH]n3)n2)CC1 measured_on="MycN protein (n-myc) (Homo sapiens, UniProt P04198)" experimental_value="50 to 79%"
structure_notation=CN(c1nccc(Nc2cc(C3CC3)[nH]n2)n1)C1CC2(C1)CN(CC(=O)Nc1cccc(S(C)(=O)=O)c1)C2 measured_on="MycN protein (n-myc) (Homo sapiens, UniProt P04198)" experimental_value="80 to 100%"
structure_notation=Cc1nnsc1C(=O)N1CC2(CC(N(C)c3nccc(Nc4cc(C5CC5)[nH]n4)n3)C2)C1 measured_on="MycN protein (n-myc) (Homo sapiens, UniProt P04198)" experimental_value="80 to 100%"
structure_notation=CN(c1nccc(Nc2cc(C3CC3)[nH]n2)n1)C1CC2(C1)CN(CC1CC1)C2 measured_on="MycN protein (n-myc) (Homo sapiens, UniProt P04198)" experimental_value="50 to 79%"
structure_notation=COCCOCCN1CC2(CC(N(C)c3nccc(Nc4cc(C5CC5)[nH]n4)n3)C2)C1 measured_on="MycN protein (n-myc) (Homo sapiens, UniProt P04198)" experimental_value="20 to 49%"
structure_notation=CN(c1nccc(Nc2cc(C3CC3)[nH]n2)n1)C1CC2(C1)CN(Cc1ccccc1F)C2 measured_on="MycN protein (n-myc) (Homo sapiens, UniProt P04198)" experimental_value="< 20%"
structure_notation=CN(c1nccc(Nc2cc(C3CC3)[nH]n2)n1)C1CC2(C1)CN(S(=O)(=O)c1cnn(C)c1)C2 measured_on="MycN protein (n-myc) (Homo sapiens, UniProt P04198)" experimental_value="80 to 100%"
structure_notation=CN(c1nccc(Nc2cc(C3CCCC3)[nH]n2)n1)C1CCN(C2CC2)CC1 measured_on="MycN protein (n-myc) (Homo sapiens, UniProt P04198)" experimental_value="80 to 100%"
structure_notation=CN(c1nccc(Nc2cc(C3CC3)[nH]n2)n1)C1CC2(C1)CN(C(=O)c1cccc(C(F)(F)F)c1)C2 measured_on="MycN protein (n-myc) (Homo sapiens, UniProt P04198)" experimental_value="80 to 100%"
structure_notation=CN(c1nccc(Nc2cc(C3CC3)[nH]n2)n1)C1CC2(C1)CN(Cc1cccc(OC(F)(F)F)c1)C2 measured_on="MycN protein (n-myc) (Homo sapiens, UniProt P04198)" experimental_value="< 20%"
structure_notation=CN(c1nccc(Nc2cc(C3CC3)[nH]n2)n1)C1CC2(C1)CN(CCCc1nc3ccccc3o1)C2 measured_on="MycN protein (n-myc) (Homo sapiens, UniProt P04198)" experimental_value="80 to 100%"
structure_notation=CN(c1nccc(Nc2cc(C3CC3)[nH]n2)n1)C1CC2(C1)CN(C(=O)c1cn(C)nn1)C2 measured_on="MycN protein (n-myc) (Homo sapiens, UniProt P04198)" experimental_value="80 to 100%"
structure_notation=CN(c1nccc(Nc2cc(C3CC3)[nH]n2)n1)C1CC2(C1)CN(Cc1cccc(S(C)(=O)=O)c1)C2 measured_on="MycN protein (n-myc) (Homo sapiens, UniProt P04198)" experimental_value="20 to 49%"
structure_notation=CN(c1nccc(Nc2cc(C3CC3)[nH]n2)n1)C1CCN(Cc2cccc(S(C)(=O)=O)c2)CC1 measured_on="MycN protein (n-myc) (Homo sapiens, UniProt P04198)" experimental_value="80 to 100%"

----------
Target: MycC protein (Homo sapiens)
Construct: either 2×10^6 of L-363 (human leukemia cell line) or SKNBE2 (neuroblastoma cell line) cells; endogenous in cells; host or cells: L-363 / L363 human leukemia cells
Sequence (P01106 whole entry): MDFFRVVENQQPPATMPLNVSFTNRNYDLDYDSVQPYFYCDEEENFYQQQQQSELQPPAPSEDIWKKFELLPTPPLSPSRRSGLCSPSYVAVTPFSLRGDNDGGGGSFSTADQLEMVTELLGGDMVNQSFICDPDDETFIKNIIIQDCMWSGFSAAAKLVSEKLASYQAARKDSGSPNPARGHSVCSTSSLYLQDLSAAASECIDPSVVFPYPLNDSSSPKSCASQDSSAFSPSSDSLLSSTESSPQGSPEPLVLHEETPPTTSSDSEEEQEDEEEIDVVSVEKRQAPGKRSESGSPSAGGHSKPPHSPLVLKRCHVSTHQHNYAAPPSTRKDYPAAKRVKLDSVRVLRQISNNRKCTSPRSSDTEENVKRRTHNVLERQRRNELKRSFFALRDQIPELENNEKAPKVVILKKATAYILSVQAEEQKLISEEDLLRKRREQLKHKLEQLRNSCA
Assay: Degradation of MycC protein, Western blot, L-363 cells (Example 160)
Type: cell-based
Conditions: 6 h
MEASURED_ENDPOINT: inhibition at 2 µM

compound=CN(c1nccc(Nc2cc(C3CC3)[nH]n2)n1)[C@H]1CC[C@H](NC(=O)c2cn(C3COC3)nn2)CC1 measured_endpoint="inhibition at 2 µM" experimental_value="80 to 100%"
compound=CN(c1nccc(Nc2cn(C3CCCC3)cn2)n1)[C@H]1CC[C@H](NC(=O)C2Cc3ccccc3C2)CC1 measured_endpoint="inhibition at 2 µM" experimental_value="50 to 79%"
compound="CN(c1cc(C2CC2)[nH]n1)c1ccnc(N(C)[C@H]2CC[C@H](NC(=O)C3CCc4ccccc43)CC2)n1 (stereo partly shown)" measured_endpoint="inhibition at 2 µM" experimental_value="50 to 79%"
compound=CN(c1nccc(Nc2cc(C3CC3)[nH]n2)n1)[C@H]1CC[C@H](NC(=O)Cc2ccnc(C#N)c2)CC1 measured_endpoint="inhibition at 2 µM" experimental_value="80 to 100%"
compound=Cn1nnc(C(=O)N[C@H]2CC[C@H](N(C)c3nccc(Nc4cc(C5CC5)[nH]n4)n3)CC2)n1 measured_endpoint="inhibition at 2 µM" experimental_value="80 to 100%"
compound=CN(c1nccc(Nc2cc(C3CC3)[nH]n2)n1)[C@H]1CC[C@H](NC(=O)c2ccc(S(C)(=O)=O)cn2)CC1 measured_endpoint="inhibition at 2 µM" experimental_value="80 to 100%"
compound="CN(c1nccc(Nc2cc(C3CC3)[nH]n2)n1)C1CCC(CC(=O)NC2Cc3cc(F)c(F)cc3C2)CC1 (stereo not shown)" measured_endpoint="inhibition at 2 µM" experimental_value="80 to 100%"
